// data source = ChEMBL document CHEMBL5352478

Let's go through some IC50 measurements on Histone deacetylase 4 (Homo sapiens, UniProt P56524) together.
Sequence (P56524 whole entry): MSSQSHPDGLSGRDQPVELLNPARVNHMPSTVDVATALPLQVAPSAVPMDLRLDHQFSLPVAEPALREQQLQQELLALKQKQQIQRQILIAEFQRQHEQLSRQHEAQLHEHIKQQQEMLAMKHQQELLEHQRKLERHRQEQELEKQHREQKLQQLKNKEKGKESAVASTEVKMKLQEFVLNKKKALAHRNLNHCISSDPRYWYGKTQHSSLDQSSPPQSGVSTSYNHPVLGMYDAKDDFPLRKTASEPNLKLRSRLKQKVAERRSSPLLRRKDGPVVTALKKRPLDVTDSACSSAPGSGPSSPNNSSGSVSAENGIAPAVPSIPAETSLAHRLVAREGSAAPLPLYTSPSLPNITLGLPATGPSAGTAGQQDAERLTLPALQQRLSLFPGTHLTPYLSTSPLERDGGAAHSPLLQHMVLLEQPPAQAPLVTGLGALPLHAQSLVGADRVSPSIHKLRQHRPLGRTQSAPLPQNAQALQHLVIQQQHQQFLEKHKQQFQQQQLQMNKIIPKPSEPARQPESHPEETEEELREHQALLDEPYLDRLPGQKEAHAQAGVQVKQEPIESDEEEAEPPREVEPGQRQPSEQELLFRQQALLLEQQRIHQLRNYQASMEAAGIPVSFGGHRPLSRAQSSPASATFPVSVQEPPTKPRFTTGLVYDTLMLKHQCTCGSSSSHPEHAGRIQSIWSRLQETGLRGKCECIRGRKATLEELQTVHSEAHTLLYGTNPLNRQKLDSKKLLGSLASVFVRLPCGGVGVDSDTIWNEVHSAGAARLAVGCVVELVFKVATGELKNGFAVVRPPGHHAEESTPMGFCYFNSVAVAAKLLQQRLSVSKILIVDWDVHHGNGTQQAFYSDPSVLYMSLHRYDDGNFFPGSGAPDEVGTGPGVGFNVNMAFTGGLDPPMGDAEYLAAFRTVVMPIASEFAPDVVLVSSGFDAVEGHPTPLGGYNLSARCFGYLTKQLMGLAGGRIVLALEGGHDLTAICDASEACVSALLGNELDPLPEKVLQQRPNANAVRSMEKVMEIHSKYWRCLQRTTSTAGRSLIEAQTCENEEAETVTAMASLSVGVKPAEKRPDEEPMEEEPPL

Some solved entries appear below for comparison.
Nc1ccccc1NC(=O)/C=C/c1ccc(NC(=O)Cc2ccccc2)cn1
Not Active
Nc1ccccc1NC(=O)/C=C/c1ccc(NC(=O)C(Cc2ccccc2)c2ccccc2)cn1 (configuration not stated)
Not Active
Nc1ccccc1NC(=O)c1ccc(NC(=O)C(Cc2ccccc2)c2ccccc2)cn1 (configuration not stated)
Not Active
Nc1ccccc1NC(=O)/C=C/c1ccc(NC(=O)Cc2cccc3ccccc23)cn1
Not Active
Nc1ccccc1NC(=O)c1ccc(NC(=O)Cc2cccc3ccccc23)cn1
Not Active

Suppose we examine the molecule `Nc1ccccc1NC(=O)/C=C/c1ccc(NC(=O)Cc2ccc3ccccc3c2)cn1` ; what IC50 value has been reported?
Not Active

Continue with CC(C)C(C(=O)Nc1ccc(C(=O)Nc2ccccc2N)nc1)c1ccccc1 (configuration not stated)
Not Active

What do you have for CCC(C(=O)Nc1ccc(/C=C/C(=O)Nc2ccccc2N)nc1)c1ccccc1 (configuration not stated) ?
Not Active

For CCC(C(=O)Nc1ccc(C(=O)Nc2ccccc2N)nc1)c1ccccc1 (configuration not stated) then?
Not Active

How about CC(C)C(C(=O)Nc1ccc(/C=C/C(=O)Nc2ccccc2N)nc1)c1ccccc1 (configuration not stated) ?
Not Active

Quick one: `Nc1ccccc1NC(=O)c1ccc(NC(=O)Cc2ccc3ccccc3c2)cn1`
Not Active

Same question, `Nc1ccccc1NC(=O)c1ccc(NC(=O)Cc2ccccc2)cn1` this time
Not Active
